Target: T1, human PRLR (Biacore antigen) (human, UniProt P16471 25-234, limits assumed)
T1 construct: The construct injected over captured antibody is not described (a soluble form is likely); also called huPRLR
T1 sequence: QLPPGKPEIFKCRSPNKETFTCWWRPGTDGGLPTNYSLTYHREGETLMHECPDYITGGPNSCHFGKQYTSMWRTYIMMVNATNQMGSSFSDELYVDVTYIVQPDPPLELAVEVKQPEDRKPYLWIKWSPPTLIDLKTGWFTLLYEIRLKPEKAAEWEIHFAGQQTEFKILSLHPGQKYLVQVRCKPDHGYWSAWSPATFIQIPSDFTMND
Test: SPR Biacore
Answer each item with its documented kon.
Answers are plain numbers, in M⁻¹ s⁻¹.

Record excerpt, results attached:
Field kon (entry Ab55 (antibody, human IgG1, kappa, V domains shown, humanized from Ab7 (back mutations on Ab39); G1; also called Ab4 HC.1a.2 and Ab4 LC.1a) VH: EVQLVQSGAEVKKPGSSVKVSCKASGYTFTSYWIHWVRQAPGQGLEWIGEIDPSDSYTNYNQKFKGRATLTVDRSSSTAYMELSSLRSEDTAVYYCGRSFFTNWFAYWGQGTLVTVSS VL: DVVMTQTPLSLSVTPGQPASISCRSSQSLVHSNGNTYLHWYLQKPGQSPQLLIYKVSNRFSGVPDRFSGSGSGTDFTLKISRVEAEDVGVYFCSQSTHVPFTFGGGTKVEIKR ) reads 170000

Field kon (entry Ab6 (antibody, V domains shown, murine monoclonal, isotype G1; also called murine Ab6) VH: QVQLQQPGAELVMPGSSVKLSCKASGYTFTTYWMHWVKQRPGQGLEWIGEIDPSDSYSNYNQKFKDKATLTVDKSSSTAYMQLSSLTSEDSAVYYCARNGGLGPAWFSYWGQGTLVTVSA VL: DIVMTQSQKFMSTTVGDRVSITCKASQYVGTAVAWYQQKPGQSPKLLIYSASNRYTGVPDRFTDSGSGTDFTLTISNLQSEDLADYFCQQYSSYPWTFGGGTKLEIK ) reads 1.28e+06

Field kon (entry Ab39 (antibody, human IgG1, kappa, V domains shown, humanized from Ab7; G1; also called Ab4 HC.1a and Ab4 LC.1a) VH: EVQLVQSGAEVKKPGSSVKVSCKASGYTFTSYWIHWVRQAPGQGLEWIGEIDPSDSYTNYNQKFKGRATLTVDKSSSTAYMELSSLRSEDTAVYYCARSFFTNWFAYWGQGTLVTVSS VL: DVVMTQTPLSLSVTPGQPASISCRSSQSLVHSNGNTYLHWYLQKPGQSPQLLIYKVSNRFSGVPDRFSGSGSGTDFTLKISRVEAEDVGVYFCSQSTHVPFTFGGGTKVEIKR ) reads 168000

Field kon (entry Ab53 (antibody, human IgG1, kappa, V domains shown, humanized from Ab7 (back mutations on Ab36); G1; also called Ab4 HC.1b.2 and Ab4 LC.1a) VH: EVQLVQSGAEVKKPGSSVKVSCKASGYTFTSYWIHWVRQAPGQGLEWIGEIDPSDSYTNYNQKFKGRVTITVDKSTSTAYMELSSLRSEDTAVYYCARSFFTNWFAYWGQGTLVTVSS VL: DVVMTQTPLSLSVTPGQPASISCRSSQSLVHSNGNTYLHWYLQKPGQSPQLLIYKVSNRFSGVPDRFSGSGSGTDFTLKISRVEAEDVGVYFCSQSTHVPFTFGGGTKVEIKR ) reads 120000

Field kon (entry Ab20 (antibody, human IgG1, kappa, V domains shown, humanized from Ab6; G1; also called Ab1 HC.1a and Ab1 LC.2) VH: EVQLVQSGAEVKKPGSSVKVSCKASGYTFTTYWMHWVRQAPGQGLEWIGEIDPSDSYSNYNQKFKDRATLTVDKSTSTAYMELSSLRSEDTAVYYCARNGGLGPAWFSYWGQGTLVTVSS VL: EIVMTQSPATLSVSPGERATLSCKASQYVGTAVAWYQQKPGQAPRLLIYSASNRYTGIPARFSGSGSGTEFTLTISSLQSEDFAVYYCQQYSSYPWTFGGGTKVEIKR ) reads 1.04e+06

Field kon (entry chAb5 (antibody, human IgG1, kappa, V domains shown, chimeric, murine variable and human G1/kappa constant regions) VH: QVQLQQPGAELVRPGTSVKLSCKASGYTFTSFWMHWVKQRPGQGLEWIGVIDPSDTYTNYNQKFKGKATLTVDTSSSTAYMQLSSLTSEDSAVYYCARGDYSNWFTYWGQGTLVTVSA VL: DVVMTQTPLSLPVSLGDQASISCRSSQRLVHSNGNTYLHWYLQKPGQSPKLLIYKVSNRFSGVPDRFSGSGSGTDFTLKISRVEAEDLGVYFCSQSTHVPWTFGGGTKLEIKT ) reads 356000

Moving on to another binder below.
Field kon (entry Ab11 (antibody, V domains shown, murine monoclonal, isotype G1; also called murine Ab11) VH: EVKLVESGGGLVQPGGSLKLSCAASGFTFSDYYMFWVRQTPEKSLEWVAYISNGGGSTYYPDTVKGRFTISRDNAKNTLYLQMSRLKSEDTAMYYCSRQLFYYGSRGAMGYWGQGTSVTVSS VL: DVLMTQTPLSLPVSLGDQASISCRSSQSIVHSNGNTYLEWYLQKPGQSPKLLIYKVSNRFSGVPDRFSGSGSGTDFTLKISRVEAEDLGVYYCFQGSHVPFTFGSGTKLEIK ) reads 305000
